- Test system: CCRF-CEM
- ASSAY_COMMENT: NCI tumour cell line growth inhibition, 48 h
Active and inactive are the calls of the source. No stated cut-off is given here; in the data, active = GI50 up to about 1.1 µM and inactive = higher.
Select the matching outcome among active, inactive

{"columns": ["COMPOUND", "LABEL_VALUE"],
 "data": [
  ["O=S(=O)(c1ccccc1)N1CCCC(c2ccccc2)CC1 (stereo unspecified)", "inactive"],
  ["c1nc(NCCc2c[nH]cn2)c2nc[nH]c2n1", "inactive"],
  ["c1cc(-c2ccc(-c3ccc(-c4ccc(-c5cccc6nsnc56)[nH]4)c4nsnc34)[nH]2)c2nsnc2c1", "inactive"],
  ["O=C(NN1C(=O)C(Cl)C1c1ccccc1O)c1ccccc1O (stereo unspecified)", "inactive"],
  ["COc1cc2c(cc1OCCN1C(=O)c3cccc4cccc(c34)C1=O)N=C[C@@H]1CCCN1C2=O", "active"]
]}

Outcome? CCOC(=O)c1ccc(/N=N/N(C)C(=O)C(C)N)cc1 (stereo unspecified) inactive

And what about the compound COc1cccc(-c2cc(=O)c3ccc(C)nc3[nH]2)c1 ? active

And what about the compound C=CC(C)(C)n1cc(C2=C3OC(=O)C(c4cn(C(C)(C)C=C)c5ccccc45)=C3OC2=O)c2ccccc21 ? inactive

And what about the compound Brc1ccc2c(-c3nc(-c4c[nH]c5ccccc45)cs3)c[nH]c2c1 ? inactive

And what about the compound CCOP1(=O)C=CC(Cl)=C(C)C1 (stereo unspecified) ? inactive

And what about the compound Cc1cc(O)c2c(c1)OC1(C)CCC3C(C)(C)CCCC34COC2C14 (stereo unspecified) ? inactive

And what about the compound COc1ccc(C(c2c[nH]c3ccc(Br)cc23)c2c[nH]c3ccc(Br)cc23)cc1 ? active

And what about the compound O=C(Cc1nc2ccc(C(=O)c3ccccc3)cc2nc1O)C(=O)Nc1nc2ccccc2[nH]1 ? inactive

And what about the compound Cc1cc(N(CCC#N)CCC#N)ccc1C(/N=N\c1ccc([N+](=O)[O-])cc1)=N\NC(=O)c1cc(Cl)ccc1O ? inactive
